assay_target: Bromodomain-containing protein 4 (Homo sapiens) (UniProt O60885)
particulars: Compound concentration 20.0 uM, Protein concentration 2.0 uM, Result type QC Liability

{"compound_structure_string": "Clc1ccc(-c2nc3sccn3c2/C=N/OCc2ccc(Cl)c(Cl)c2)cc1", "ΔTm, °C": -1.58}
{"compound_structure_string": "CCOC(=O)c1cc2cc(-c3cc(C(=O)NCc4ccc(C(=O)O)cc4)nn3C)ccc2[nH]1", "ΔTm, °C": -0.14}
{"compound_structure_string": "Fc1ccc(-c2nc(-c3ccc4ccccc4c3F)[nH]c2-c2ccncc2)cc1", "ΔTm, °C": -0.46}
{"compound_structure_string": "COc1ccc(C(=O)N[C@H](C)c2cccc(C(=O)Nc3nc4c(s3)CN(C)CC4)c2)cc1C", "ΔTm, °C": -1.18}
{"compound_structure_string": "Cc1ccc(NC(=O)c2ccc3c(c2)OCCO3)cc1NC(=O)c1ccc2nc(OCCN3CCCC3)ccc2c1", "ΔTm, °C": -12.8}
{"compound_structure_string": "Cc1csc(-c2nnc(Nc3ccc(Oc4ncccc4-c4ccnc(N)n4)cc3)c3ccccc23)c1", "ΔTm, °C": 11.5}
{"compound_structure_string": "Nc1nc(-c2nn(Cc3ccccc3F)c3ncccc23)ncc1C1CC1", "ΔTm, °C": 1.11}
{"compound_structure_string": "Fc1cccc(-n2cnc3c(NCc4nc5c(F)c(F)ccc5[nH]4)nc(N4CCOCC4)nc32)c1", "ΔTm, °C": 0.39}
{"compound_structure_string": "CN(C)C(=O)Cn1cc(-c2ccc(-c3cncc4ccccc34)cc2)cn1", "ΔTm, °C": -2.19}
